B1: Cyclin-F, residues 28 to 80; numbered along this chain, P41002 (parent)
chain: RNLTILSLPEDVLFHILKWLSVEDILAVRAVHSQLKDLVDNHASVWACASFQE

# Variants of: B1
# measurement_description: abundance fitness (aPCA) (normalised: wild type 0, dead -1); higher = more abundant; growth selection in yeast, the domain comes from the species named
# condition_parameters: Homo sapiens
attribute_measured: abundance fitness
// keep it numeric: no unit symbol after the value

Asked: Give its abundance fitness value. Item: L3C
Given back: -0.316

Asked: Give its abundance fitness value. Item: L3F
Given back: -0.078

Asked: Give its abundance fitness value. Item: L13Y
Given back: -0.306

Asked: Give its abundance fitness value. Item: N41P
Given back: -0.59

Asked: Give its abundance fitness value. Item: D40G
Given back: -0.77

Asked: Give its abundance fitness value. Item: H42F
Given back: -0.418

Asked: Give its abundance fitness value. Item: H15E
Given back: -0.222

Asked: Give its abundance fitness value. Item: V45N
Given back: 0.031

Asked: Give its abundance fitness value. Item: R1W
Given back: -0.914

Asked: Give its abundance fitness value. Item: D11K
Given back: 0.269

Asked: Give its abundance fitness value. Item: I25T
Given back: -0.703

Asked: Give its abundance fitness value. Item: L20R
Given back: -0.853

Asked: Give its abundance fitness value. Item: D40T
Given back: -0.444

Asked: Give its abundance fitness value. Item: N41K
Given back: 0.231

Asked: Give its abundance fitness value. Item: D37Q
Given back: 0.075
